Assayed System: human FXR (NR1H4) (Homo sapiens (Human))
Sequence (Q96RI1 whole entry): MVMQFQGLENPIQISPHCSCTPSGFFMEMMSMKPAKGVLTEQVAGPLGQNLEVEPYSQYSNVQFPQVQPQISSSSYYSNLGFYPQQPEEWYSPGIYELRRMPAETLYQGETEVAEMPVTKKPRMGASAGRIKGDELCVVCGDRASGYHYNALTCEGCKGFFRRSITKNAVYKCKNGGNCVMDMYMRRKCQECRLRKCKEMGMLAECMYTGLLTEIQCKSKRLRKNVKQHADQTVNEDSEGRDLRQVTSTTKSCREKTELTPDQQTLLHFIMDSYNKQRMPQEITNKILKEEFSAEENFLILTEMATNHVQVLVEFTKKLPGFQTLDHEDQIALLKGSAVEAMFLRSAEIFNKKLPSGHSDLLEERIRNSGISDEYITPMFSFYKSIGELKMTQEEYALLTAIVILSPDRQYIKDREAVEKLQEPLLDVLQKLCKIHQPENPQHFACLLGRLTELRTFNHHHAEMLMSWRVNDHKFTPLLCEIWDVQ
Assay Method Text: Human FXR (NR1H4) Assay (luciferase reporter, Indigo Bioscience kit)
Stated Conditions: FXR agonistic potency range; CHO reporter cells expressing human NR1H4, 22 hours incubation
pEC50: −log10 of the molar value.
Observation Type: pEC50

// known answers, use as guide
CC[C@H]1[C@@H](O)[C@@H]2[C@H](CC[C@]3(C)[C@@H]([C@H](C)CCCc4cccc(C(=O)O)c4)CC[C@@H]23)[C@@]2(C)CC[C@@H](O)C[C@@H]12 [Example 23] | 5.00 to 6.00
CC[C@H]1[C@@H](O)[C@@H]2[C@H](CC[C@]3(C)[C@@H]([C@H](C)C/C=C/c4ccccc4-c4nnn[nH]4)CC[C@@H]23)[C@@]2(C)CC[C@@H](O)C[C@@H]12 [Example 30] | 6.00 to 7.00

## Input Notebook entry, human FXR (NR1H4) (Homo sapiens (Human)) assay: pEC50 of CC[C@H]1[C@@H](O)[C@@H]2[C@H](CC[C@]3(C)[C@@H]([C@H](C)C/C=C/c4ccc(C(=O)OC)c(O)c4)CC[C@@H]23)[C@@]2(C)CC[C@@H](O)C[C@@H]12 [Example 12] = ?
## Output 5.00 to 6.00

## Input Lab request: please report pEC50 under test system human FXR (NR1H4) (Homo sapiens (Human)) for CC[C@H]1[C@@H](O)[C@@H]2[C@H](CC[C@]3(C)[C@@H]([C@H](C)CCCc4ccc(F)cc4C(=O)O)CC[C@@H]23)[C@@]2(C)CC[C@@H](O)C[C@@H]12 [Example 26]
## Output 6.00 to 7.00

## Input // fetch human FXR (NR1H4) (Homo sapiens (Human)) pEC50 for CC[C@H]1[C@@H](O)[C@@H]2[C@H](CC[C@]3(C)[C@@H]([C@H](C)Cc4nc5c(C(=O)O)cccc5o4)CC[C@@H]23)[C@@]2(C)CC[C@@H](O)C[C@@H]12 [Example 7]
## Output 6.00 to 7.00

## Input GET /values?readout=pEC50&system=human FXR (NR1H4) (Homo sapiens (Human))&item= CC[C@H]1[C@@H](O)[C@@H]2[C@H](CC[C@]3(C)[C@@H]([C@H](C)CCCc4ccc(C(C)C(=O)O)cc4)CC[C@@H]23)[C@@]2(C)CC[C@@H](O)C[C@@H]12 (stereo partly drawn) [Example 17]
## Output 5.00 to 6.00

## Input What pEC50 appears in the records for this compound with human FXR (NR1H4) (Homo sapiens (Human))? CC[C@H]1[C@@H](O)[C@@H]2[C@H](CC[C@]3(C)[C@@H]([C@H](C)C/C=C/c4ccc(C(=O)OC)cc4)CC[C@@H]23)[C@@]2(C)CC[C@@H](O)C[C@@H]12 [Example 18]
## Output 5.00 to 6.00

## Input What is its pEC50 for human FXR (NR1H4) (Homo sapiens (Human))? Entry: CC[C@H]1[C@@H](O)[C@@H]2[C@H](CC[C@]3(C)[C@@H]([C@H](C)CCCc4ccc(C(=O)O)c(O)c4)CC[C@@H]23)[C@@]2(C)CC[C@@H](O)C[C@@H]12 [Example 14]
## Output 5.00 to 6.00

## Input Recall the recorded pEC50 for CC[C@H]1[C@@H](O)[C@@H]2[C@H](CC[C@]3(C)[C@@H]([C@H](C)C/C=C/c4ccc(C(=O)O)cc4)CC[C@@H]23)[C@@]2(C)CC[C@@H](O)C[C@@H]12 [Example 19] with human FXR (NR1H4) (Homo sapiens (Human)) and state it.
## Output 6.00 to 7.00
